Some compounds, each annotated with its measured melting point.

Compound: COc1cc(N)c(Cl)cc1C(=O)NN1CCN(Cc2ccc(N(C)C)cc2)CC1
melting point: 208 to 210 °C
--
Compound: CCCCCCC(O)CCCCCCCCCCC(=O)OC (configuration not stated)
melting point: 58 °C
--
Compound: CNC(=O)OCC(C)Nc1ncc(Oc2cc(Cl)c(OC)cc2C(C)C)c(N)n1 (configuration not stated)
melting point: 63.5 to 69.4 °C
--
Compound: CC(C)(C)N1CC=C(c2c[nH]c(-c3ccc(F)cc3)c2-c2ccncc2)CC1
melting point: 242 to 244 °C
--
Compound: CCCN(CCC)C1Cc2c[nH]c3ccc(C(=O)C(C)C)c(c23)C1 (configuration not stated)
melting point: 128 °C
--
Compound: C=CCOc1cc2c(cc1C)OC1(CC(C)(C)c3cc(O)c(C)cc3O1)CC2(C)C (configuration not stated)
melting point: 143 to 144 °C
--
Compound: CC(=O)OCc1nc2sc(S(N)(=O)=O)cc2c(=O)n1-c1ccccc1Cl
melting point: 192 to 194 °C

----------
Some molecules, each annotated with its measured melting point.

Molecule: Oc1cccc2c1CCCC2CN1CCCCC1 (stereo not given)
melting point: 129 to 131 °C
//
Molecule: O=C(NN=C1c2ccc(F)cc2CCC1c1ccccc1)Nc1ccc(C(F)(F)F)cc1 (stereo not given)
melting point: 158 to 160 °C
//
Molecule: CCN1c2ncccc2C(=O)N(C)c2ccc(-c3cc[nH]c3C(C)=O)nc21
melting point: > 80 °C
//
Molecule: O=C1NC(=O)C(Cc2ccc(NC(=O)c3sc(Nc4ccccc4)c4c3CCc3cnoc3-4)cc2)S1 (stereo not given)
melting point: 151 to 152 °C
//
Molecule: CN(C)C=Nc1nc(=O)n(S(=O)(=O)c2ccccc2)cc1F
melting point: 203 to 204 °C
//
Molecule: CC1(c2ccccc2)CCC(=O)CC1
melting point: 48 to 50 °C
//
Molecule: Cc1ccc(S(=O)(=O)OCC2Cc3cccc(-c4ccsc4)c3O2)cc1 (stereo not given)
melting point: 90 to 92 °C
//
Molecule: CC(CC1C(C(=O)O)C1(C)C)=C(Cl)Cl (stereo not given)
melting point: 58.5 to 60 °C
//
Molecule: COC(=O)c1ccc(SCn2cc(I)cnc2=O)cc1
melting point: 210 °C
//
Molecule: COC(=O)C(C)N(C(=O)CO)c1c(C)csc1C (stereo not given)
melting point: 69 to 70 °C
//
Molecule: CC1=C(C(=O)OC(C)C)C(c2ccccc2F)n2nncc2N1 (stereo not given)
melting point: 137 to 139 °C
//
Molecule: CCOC(=O)C1=C(N)NC(C)=CC1c1ccc(OC)cc1 (stereo not given)
melting point: 160 to 161 °C
//
Molecule: CNc1nc(Nc2cccc(OCCNC(=O)OC(C)(C)C)c2)ncc1[N+](=O)[O-]
melting point: 193 °C
//
Molecule: N#Cc1ccc(Cc2nccc(-c3ccc(C#N)cc3)n2)cc1
melting point: 155 to 156 °C
//
Molecule: O=C(Nc1c([N+](=O)[O-])cc(F)c(Cl)c1F)C(F)(F)F
melting point: 124 to 125 °C

----------
Compound: O=C(OCC=C(c1ccccc1)[N+](=O)[O-])C(F)(F)C(F)(F)C(F)(F)C(F)(F)C(F)(F)C(F)(F)C(F)(F)F
melting point: 79 to 81 °C

Compound: CC(C)(C)OC(=O)CN1C(=O)[C@H](N)CCc2ccccc21
melting point: 113 to 115 °C

Compound: O=C1c2c(cc(O)c(Cl)c2Cl)CC1(c1ccccc1)c1ccccc1
melting point: 207 to 213 °C

Compound: Cc1oc(-c2ccccc2)nc1CCOc1ccc(CCC2SC(=O)NC2=O)cc1 (configuration not stated)
melting point: 151 to 152 °C

Compound: O=C(Cl)Oc1cccc(NC(=O)C2CC2)c1
melting point: 94 °C

Compound: CCNC(=O)[C@@H](C[C@H](O)[C@H](CC1CCCCC1)NC(=O)[C@H](Cc1cscn1)NC(=O)OC(C)(C)C)C(C)(C)O
melting point: 189 to 191 °C

Compound: CNc1nc(Nc2ccc(Cl)c(Cl)c2)ncc1NP(C)(C)=O
melting point: 258 °C

Compound: COc1cc2cc3c(Nc4ccc(F)c(Cl)c4)c(C#N)cnc3cc2cc1OCCCl
melting point: 137 to 159 °C

Compound: CNC(=O)C1CCN(c2cc(-c3ccc(Cl)cc3)nc3ccc(F)cc23)CC1
melting point: 279 °C

Compound: NS(=O)(=O)c1ccc(-n2nc(C(F)(F)F)cc2-c2ccc(-c3cnco3)cc2)cc1
melting point: 128 to 130 °C

Compound: CC(=O)ON(C(N)=O)C(C)c1cc2ccccc2s1 (configuration not stated)
melting point: 138 °C

Compound: O=C(O)CCC(CCCCNS(=O)(=O)c1ccc(Cl)cc1)CCCc1cccnc1 (configuration not stated)
melting point: 116 to 118 °C

Compound: N#Cc1ccc(C(=O)c2ccccc2S)cc1
melting point: 98 to 100 °C

Compound: N=C(Nc1ccc(CN(Cc2ccccc2)Cc2ccccc2)cc1)c1cccs1
melting point: 127 to 128 °C

Compound: COc1ccc([C@]2(C)CNC(=O)O2)cc1O
melting point: 142 °C

Compound: Cc1nc2ncnn2c(Cl)c1CCCl
melting point: 81 to 82 °C

Compound: CC(c1cccnc1)C(O)(Cn1cncn1)c1ccc(F)cc1F (configuration not stated)
melting point: 113 to 114 °C

Compound: O=C(NNC1NS(=O)(=O)c2ccccc21)Oc1ccccc1 (configuration not stated)
melting point: 216 °C

Compound: O=C(O)c1ccc(NCc2cncc3ccccc23)cc1
melting point: 237 to 240 °C

Compound: COc1ccccc1Oc1ccc([N+](=O)[O-])cc1C(=O)O
melting point: 162 to 165 °C

Compound: CCN(CC)C(=O)COc1cc(-c2ccccc2)cc2ccccc12
melting point: 82 °C

Compound: CCSCCn1cc(C(=O)NCc2ccc(Cl)cc2)c(=O)c2cc(CN3CCOCC3)ccc21
melting point: 140 to 142 °C

Compound: CCCN(CCC)C(=O)COc1nc(-c2ccccc2)nc(C)c1Cl
melting point: 90 to 91 °C

Compound: Fc1ccc(C=Cc2nc(CNc3ccc(CCCCn4ccnn4)cc3)co2)c(C(F)(F)F)c1
melting point: 109 to 111 °C

Compound: COC(=O)c1ccc(COCn2cc(Cl)cnc2=O)cc1
melting point: 172 °C

Compound: O=C1NC(N2CCN(c3cnc(Cl)cn3)CC2)c2ccccc21 (configuration not stated)
melting point: 263 to 266 °C

Compound: COC[C@@H](N)C(=O)N(O)C(=O)OC(C)(C)C
melting point: 83 to 85 °C

Data origin, for the record: a melting point compilation (Tetko et al.; mined from patent text by program, amines drawn as free bases though some values may be those of a salt)
